pIC50: −log10 of the molar value. Counter-ions that a name gives are not always drawn.
pIC50 data for PKBα (Homo sapiens, UniProt P31749) follow.

Take a look at these entries with their results.
INSERT INTO results (compound, value_observed) VALUES
  ('N[C@H](CNc1ncc(-c2ccc3cnc(F)cc3c2)s1)Cc1ccc(C(F)(F)F)cc1 [Example 4, trifluoroacetate]', '> 7.30'),
  ('C[C@@H](c1ccc(C(F)(F)F)nc1)[C@H](N)CNc1nc(CO)c(-c2ccc3cnc(F)cc3c2)s1', '> 7.30'),
  ('N[C@H](CNc1ncc(-c2ccc3cnc(F)cc3c2)s1)Cc1ccc(Cl)c(Cl)c1', '> 7.30'),
  ('N[C@H](CNc1ncc(-c2ccc3cnc(F)cc3c2)s1)[C@@H](O)c1ccc(C(F)(F)F)cc1 [Example 37, trifluoroacetate]', '> 7.30'),
  ('CC(C)(C)OC(=O)N[C@@H](Cc1ccc(C(F)(F)F)nc1)CN(C(=O)OC(C)(C)C)c1ncc(-c2ccc3cnc(F)cc3c2)s1', '5.00 to 6.00');

# compound `CS(=O)(=O)C[C@@H](c1ccc(C(F)(F)F)cc1)[C@H](N)CNc1ncc(-c2ccc3cnc(F)cc3c2)s1` ; its pIC50 = 6.00 to 7.30

# compound `N[C@H](CCc1ncc(-c2ccc3cnc(F)cc3c2)s1)Cc1ccc(C(F)(F)F)cc1` ; its pIC50 = 5.00 to 6.00

# compound `CC(F)(F)c1ccc(C[C@H](N)CNc2ncc(-c3ccc4cnc(F)cc4c3)s2)cc1` ; its pIC50 = > 7.30

# compound N[C@H](CCc1ncc(-c2ccc3cnc(F)cc3c2)s1)[C@@H](O)c1ccc(C(F)(F)F)cc1 [Example 36, trifluoroacetate] ; its pIC50 = > 7.30

# compound `N[C@H](CNc1ncc(-c2ccc3cnc(F)cc3c2)s1)Cc1ccc2c(c1)OCCO2` ; its pIC50 = > 7.30

# compound `N[C@H](CNc1ncc(-c2ccc3cnc(F)cc3c2)s1)Cc1ccc(Cl)c(F)c1` ; its pIC50 = > 7.30

# compound CNC(=O)c1nc(NC[C@@H](N)Cc2ccc(C(F)(F)F)cc2)sc1-c1ccc2cnc(F)cc2c1 [Example 22, trifluoroacetate] ; its pIC50 = 6.00 to 7.30

# compound CC(F)(F)c1ccc([C@H](O)[C@H](N)CNc2ncc(-c3ccc4cnc(F)cc4c3)s2)cc1 [Example 38, trifluoroacetate] ; its pIC50 = > 7.30

# compound `CC(C)(C)OC(=O)N[C@@H](Cc1ccc(C(F)F)cc1)CN(C(=O)OC(C)(C)C)c1ncc(-c2ccc3cnc(F)cc3c2)s1` ; its pIC50 = 5.00 to 6.00

# compound `N[C@H](CNc1ncc(-c2ccc3cnc(F)cc3c2)s1)CN1CCC(C(F)(F)F)CC1` ; its pIC50 = 6.00 to 7.30

====

measurement.protocol: In vivo pharmacokinetics, IV and oral gavage
Design: species or system male Sprague-Dawley rats
run.parameters: male, Sprague-Dawley, plasma; rat, IV 2 mg/kg
Where a name gives a salt, the structure may show the parent alone.
measured.property: clearance (mL/min/kg)

INSERT INTO results (molecule, measured_property, quantity_unit, value_observed) VALUES
  ('N[C@H](CNc1ncc(-c2ccc3cnc(F)cc3c2)s1)Cc1ccc(C(F)(F)F)nc1', 'clearance', 'mL/min/kg', 12.1),
  ('CC(F)(F)c1ccc(C[C@H](N)CNc2ncc(-c3ccc4cnccc4c3)s2)cn1 [7′, reference compound]', 'clearance', 'mL/min/kg', 97.9),
  ('COCc1nc(NC[C@@H](N)Cc2ccc(C(F)(F)F)cc2)sc1-c1ccc2cnccc2c1 [24′, reference compound]', 'clearance', 'mL/min/kg', 90.1),
  ('N[C@H](CNc1ncc(-c2ccc3cnccc3c2)s1)Cc1ccc(C(F)(F)F)cc1 [4′, reference compound]', 'clearance', 'mL/min/kg', 50.9),
  ('N[C@H](CCc1ncc(-c2ccc3cnc(F)cc3c2)s1)[C@@H](O)c1ccc(C(F)(F)F)cc1 [Example 36, trifluoroacetate]', 'clearance', 'mL/min/kg', 14.6),
  ('N[C@H](CNc1ncc(-c2ccc3cnc(F)cc3c2)s1)CN1CCC(C(F)(F)F)CC1', 'clearance', 'mL/min/kg', 29.9),
  ('N[C@H](CNc1ncc(-c2ccc3cnccc3c2)s1)Cc1ccc(Cl)c(F)c1 [44′, reference compound]', 'clearance', 'mL/min/kg', 41.5),
  ('N[C@H](CNc1ncc(-c2ccc3cnc(F)cc3c2)s1)[C@@H](CO)c1ccc(C(F)(F)F)cc1', 'clearance', 'mL/min/kg', 9.02),
  ('C[C@@H](c1ccc(C(F)(F)F)cc1)[C@H](N)CNc1ncc(-c2ccc3cnccc3c2)s1 [10′, reference compound]', 'clearance', 'mL/min/kg', 19.1),
  ('N[C@H](CCc1ncc(-c2ccc3cnccc3c2)s1)[C@@H](O)c1ccc(C(F)(F)F)cc1 [36′, reference compound]', 'clearance', 'mL/min/kg', 150);

A = CC(F)(F)c1ccc([C@H](O)[C@H](N)CNc2ncc(-c3ccc4cnc(F)cc4c3)s2)cc1 [Example 38, trifluoroacetate]
B = N[C@H](CNc1ncc(-c2ccc3cnc(F)cc3c2)s1)Cc1ccc(C(F)(F)F)cc1 [Example 4, trifluoroacetate]
Which value of clearance is smaller, the one for A or the one for B ? Write down the label attached to your selection.
A

P = N[C@H](CNc1ncc(-c2ccc3cnc(F)cc3c2)s1)Cc1ccc(Cl)c(F)c1
Q = CC(F)(F)c1ccc(C[C@H](N)CCc2ncc(-c3ccc4cnc(F)cc4c3)s2)cn1
Higher clearance: P or Q ? Write down the label attached to your selection.
Q
(Q: 45.1 mL/min/kg, P: 8.2 mL/min/kg)
